// each record: one item and its pIC50 for HSV polymerase (Human herpesvirus 1, UniProt P04293)
pIC50: −log10 of the molar value.
METRIC_NAME: pIC50

INSERT INTO results (molecule, metric_name, experimental_result) VALUES
  ('Cn1cc(C(=O)NCc2ccc(Cl)cc2)c(=O)c2cc(CN3CCC[C@@H]3[C@@H](O)c3ccccc3)sc21 (relative stereo) [Example 2]', 'pIC50', 6.14);

[P] Cn1cc(C(=O)NCc2ccc(Cl)cc2)c(=O)c2cc(CN3CCOC[C@@H]3Cc3ccccc3)sc21 [Example 1]
[Q] Cn1cc(C(=O)NCc2ccc(Cl)cc2)c(=O)c2cc(CN3CCOC[C@@H]3[C@H](O)c3ccccc3)sc21 [Example 14]
[R] Cn1cc(C(=O)NCc2ccc(Cl)cc2)c(=O)c2cc(CN3CCOC[C@@H]3[C@@H](O)c3ccccc3)sc21 [Example 15]
Exercise: Sort the 3 molecules by pIC50; largest first, smallest last. Your task in answering is to list the labels in the requested order.
Solution: R, P, Q
